- Tested on: Purkinje fiber
- method: Effect on APD (APD75, field-stimulated right ventricular free wall)
- Format: cell-based, adult mongrel dog
- assay_conditions: Canis lupus familiaris, purkinje, 20 min, dose 1 μg/ml, 20 minutes incubation, 37° C., 1 Hz; control before drug = 100%; read-out: APD75 % (percent change in APD75)
parameter: activation at 1 µg/mL (%)
Note: unit % is implicit; provide only the numeric part.

Below, each entry is followed by its recorded activation at 1 µg/mL result.
| compound | assayed_target | parameter | output_unit | recorded_value |
| --- | --- | --- | --- | --- |
| CC1CCCCN1CCCOc1ccc2c(c1)OCC2=O (stereo not shown) | Purkinje fiber | activation at 1 µg/mL | % | 11 |
| CCCCN(CCCC)CCCOc1ccc2c(c1)OCC2=O | Purkinje fiber | activation at 1 µg/mL | % | 13 |
| CC(C)N(CCCOc1ccc2c(c1)OCC2=O)C(C)C | Purkinje fiber | activation at 1 µg/mL | % | 14 |

Return activation at 1 µg/mL (reported value) for this compound: "O=C1COc2cc(OCCCN3CCC(Cc4ccccc4)CC3)ccc21"
18
